Assay: Ketose 3-epimerase activity ratio (T70/T50) at reaction temperature of 70° C. to 50° C.
Type: biochemical
Details: crude recombinant enzyme; ratio of activity at 70° C. to activity at 50° C., 10 min reaction
Description: An enzyme having higher heat resistance than an amino acid substitution-free wild type enzyme can be obtained by introducing mutation into the gene of the ketose 3-epimerase of the present invention and substituting the corresponding amino acid residue with another amino acid residue by a site-directed mutagenesis operation to prepare various amino acid-substituted mutants. […]

- MOLECULE: "Ketose 3-epimerase mutant 26: amino acid-substituted mutant of SEQ ID NO: 1 (protein, Arthrobacter histidinolovorans) MKIGCHGLVWTGRFDAEGIRYSVQKTKEAGFDLIEFPLMDPFSFDVATAKSALAEHGLTASASLGLSEATDVSSEDPAIVKAGEELLNRALDVLAEMGATDFCGVIYSAMKKYMEPATEQGLSNSKAAVGRVVDRAAGLGINVSLEVVNRYETNVLNTGRQALSYLSDVKRPNLGVHLDTYHMNIEESDMFSPVLDTAEALKYVHIGESHRGYLGTGSVDFDNFFKALGRIGYDGPVVFESFSSAVVAPDLSRMLGIWRNLWADNEELGAHANAFIRDKLTAIKTIELH"
  T70/T50: 1.65
- MOLECULE: "Ketose 3-epimerase mutant 35: amino acid-substituted mutant of SEQ ID NO: 1 (protein, Arthrobacter histidinolovorans) MKIGCHGLVWTGRFDAEGIRYSVQKTKEAGFDLIEFPLMDPFSFDVATAKSALAEHGLTASASLGLSEATDVSSEDPAIVKAGEELLNRALDVLAELGATDFCGVIYSAMKKYMEPATEQGLSNSKAAVGRIVDRAAGLGINVSLEVVNRYETNVLNTGRQALSYLSDVKRPNLGVHLDTYHMNIEESDMFSPVLDTAEALKYVHIGESHRGYLGTGSVDFDNFFKALGRIGYDGPVVFESFSSAVVAPDLSRMLGIWRNLWADNEELGAHANAFIRDKLTAIKTIELH"
  T70/T50: 1.34
- MOLECULE: "Ketose 3-epimerase mutant 22: amino acid-substituted mutant of SEQ ID NO: 1 (protein, Arthrobacter histidinolovorans) MKIGCHGLVWTGRFDAEGIRYSVQKTKEAGFDLIEFPLMDPFSFDVATAKSALAEHGLSVSASLGLSEATDVSSEDSAIVKAGEELLNRALDVVAELGATEFCGVIYSSMKKYMEPATEQGLSNSKAAIGRVVDRAAGLGINVALEVVNRYETNVLNTGRQALSYLQDVKRPNLGVHLDTYHMNIEESDMFSPVLDTAEVLKYVHIGESHRGYLGTGNVDFDNFFKALGRIGYDGPVVFESFSSAVVAPDLSRMLGIWRNLWADNEELGAHANAFIRDKLTAIKTIELH"
  T70/T50: 1.70
- MOLECULE: "Ketose 3-epimerase mutant 33: amino acid-substituted mutant of SEQ ID NO: 1 (protein, Arthrobacter histidinolovorans) MKIGCHGLVWTGRFDAEGIRYSVQKTKEAGFDLIEFPLMDPFSFDVATAKSALAEHGLSVSASLGLSEATDVSSEDPAIVKAGEELLNRALDVLAELGATEFCGVIYSAMKKYMEPATEQGLSNSKAAVGRVVDRAAGLGINVSLEVVNRYETNVLNTGRQALSYLSDVKRPNLGVHLDTYHMNIEESDMFSPVLDTAEVLKYVHIGESHRGYLGTGNVDFDNFFKALGRIGYDGPVVFESFSSAVVAPDLSRMLGIWRNLWADNEELGAHANAFIRDKLTAIKTIELH"
  T70/T50: 1.46
